Biological target: human CGRP receptor (CLR/RAMP1), transiently transfected in Cos 7 cells (human, UniProt Q16602 23-461; O60894 27-148)
Sequence (Q16602 23-461, chain 1 of 2): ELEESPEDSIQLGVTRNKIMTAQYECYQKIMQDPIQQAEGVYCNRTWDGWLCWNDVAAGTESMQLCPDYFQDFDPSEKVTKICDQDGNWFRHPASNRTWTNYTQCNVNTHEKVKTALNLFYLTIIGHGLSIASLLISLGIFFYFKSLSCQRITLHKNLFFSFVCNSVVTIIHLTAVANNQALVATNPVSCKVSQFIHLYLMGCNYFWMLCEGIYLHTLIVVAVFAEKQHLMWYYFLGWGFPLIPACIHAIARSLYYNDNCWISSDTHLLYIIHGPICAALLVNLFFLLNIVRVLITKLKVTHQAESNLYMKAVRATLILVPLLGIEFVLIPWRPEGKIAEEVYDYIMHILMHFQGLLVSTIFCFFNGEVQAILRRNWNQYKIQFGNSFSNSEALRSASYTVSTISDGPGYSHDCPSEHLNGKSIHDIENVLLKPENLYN
Sequence (O60894 27-148, chain 2 of 2): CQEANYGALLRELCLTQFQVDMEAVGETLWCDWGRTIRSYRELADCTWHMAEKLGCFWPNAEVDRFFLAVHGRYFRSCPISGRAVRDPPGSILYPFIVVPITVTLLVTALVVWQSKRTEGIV
Experiment: cell-based or functional assay
Where no end group is shown, it is not given here. The star is where a group is joined. Ethyl(2-palmitoyloxy) = CCCCCCCCCCCCCCCC(=O)OCC*
observation-type: A2 (antilog of the negative pA2; cAMP assay, Cos 7) (nM)
Unit nM implied. Number only.

IN: Answer with reported A2 (antilog of the negative pA2; cAMP assay, Cos 7) of CVTHRLAGLLSRSGGVVKNNFVPTNVGSKAF (Cys 7 (CGRP numbering; residue 1 of the entry) S-conjugated to 2-(palmitoyloxy)ethyl (S-Pam); C-terminal amide) [7C(S-Pam) CGRP7-37 B1]
OUT: 1.7

IN: Answer with reported A2 (antilog of the negative pA2; cAMP assay, Cos 7) of CVTHRLAGLLSRSGGVVKNNFVPTNVGSKAF-NH2 [CGRP7-37 B]
OUT: 4.9

IN: Answer with reported A2 (antilog of the negative pA2; cAMP assay, Cos 7) of C(Ethyl(2-palmitoyloxy))THRLAGLLSRSGGVVKNNFVPTNVGSKAF-NH2 [V8C(S-Pam) CGRP8-37 A4]
OUT: 0.59

IN: Answer with reported A2 (antilog of the negative pA2; cAMP assay, Cos 7) of VTHRLAGLLSRSGGVVC(Ethyl(2-palmitoyloxy))NNFVPTNVGSKAF-NH2 [K24C(S-Pam) CGRP8-37 A5]
OUT: 6.8
